Please provide measured Array Heatmap value (peptide array binding signal) for the entries that follow.
- Test system: TAF3
- Measurement description: Histone peptide microarray
- Type: binding, human
- Experimental conditions: TAF3, GST-tagged; arrays performed twice, n of 4
Where no end group is shown, it is not given here. [ ]: non-standard residue; d: D form. Arg(Me2a) = CN(C)C(=N)NCCC[C@H](N)C(=O)O; pS = N[C@@H](COP(=O)(O)O)C(=O)O
Numbers only.

Known results for substances:
Query: # query: Array Heatmap value (peptide array binding signal) of entry H2AS1p + K5ac: H2A 1-17 ([pS]GRGK(Ac)QGGKARAKAKTR; UniProt P0C0S8 2-18, looked up, fragment)
Reply: 0.2127

Query: # query: Array Heatmap value (peptide array binding signal) of entry H2AR3me2a + K5ac: H2A 1-17 (SG[Arg(Me2a)]GK(Ac)QGGKARAKAKTR; UniProt P0C0S8 2-18, looked up, fragment)
Reply: 0.2475

Query: # query: Array Heatmap value (peptide array binding signal) of entry Myc-Tag: 1-10 (ILKKATAYIL; Myc epitope tag; UniProt P01106 410-419, looked up, fragment)
Reply: 0.2522

Query: # query: Array Heatmap value (peptide array binding signal) of entry H2A.Z (1-19) (N-ac): H2AZ 1-19 (Ac-AGGKAGKDSGKAKTKAVSR; UniProt P0C0S5 2-20, looked up, fragment)
Reply: 0.2353

Query: # query: Array Heatmap value (peptide array binding signal) of entry H2AS1p + R3me2a + K5ac: H2A 1-17 ([pS]G[Arg(Me2a)]GK(Ac)QGGKARAKAKTR; UniProt P0C0S8 2-18, looked up, fragment)
Reply: 0.2891

Kindly review the next substance as well.
Query: # query: Array Heatmap value (peptide array binding signal) of entry H2A.Z (1-19): H2AZ 1-19 (AGGKAGKDSGKAKTKAVSR; UniProt P0C0S5 2-20, looked up, fragment)
Reply: 0.3163
